The reported numbers originate from patent US8580829B2.

target: recombinant human FLAP protein (Homo sapiens, UniProt P20292); assay: FLAP binding assay (Scintillation Proximity Assay, displacement of [125I]L-691,831); conditions: recombinant human FLAP membranes, [125I]L-691,831 probe; read-out: FLAP SPA IC50
Sequence (P20292 whole entry): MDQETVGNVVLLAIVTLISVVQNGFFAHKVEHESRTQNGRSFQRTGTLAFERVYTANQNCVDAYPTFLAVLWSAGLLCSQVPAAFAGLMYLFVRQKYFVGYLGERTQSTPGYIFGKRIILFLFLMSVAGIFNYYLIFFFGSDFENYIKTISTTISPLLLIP
property: IC50 (nM)
Numbers only; they are read as nM.

[Q] Reported IC50 for Cc1n[nH]c(C)c1Cc1nc(C2(c3ccc(-c4cnc(N)nc4)cc3)CCC2)no1 : what is it?
[A] 29

[Q] Subsequent entry: CN(C(=O)Cn1cc(-c2nc(C3(c4ccc(-c5cnc(N)nc5)cc4)CCC3)no2)cn1)C1CCCOC1 (centres unmarked)
[A] 8.2

[Q] Also Cc1cc(-c2cnc(N)nc2)ccc1C1(c2noc(-c3cnn(C)c3)n2)CCC1 ?
[A] 12

[Q] # iterate: CN(C)C(=O)C(C)(C)n1cc(-c2nc(C3(c4ccc(-c5cnc(N)nc5)cc4)CCC3)no2)cn1
[A] 6.7

[Q] Then what about the compound Nc1ncc(-c2ccc(C3(c4noc(Cc5ccccc5)n4)CCOCC3)cc2)cn1 ?
[A] 180

[Q] Consider next the compound Nc1ncc(-c2ccc(C3(c4noc(-c5cn[nH]c5)n4)CCC3)cc2)cn1 in the same way.
[A] 2.3

[Q] Okay, and Nc1ncc(-c2ccc(C3(c4noc(-c5ccc(NCCN6CCOCC6)nn5)n4)CCC3)cc2)cn1 ?
[A] 3.3

[Q] Here is the next compound: Nc1ncc(-c2ccc(C3(c4noc([C@H]5CCCCN5)n4)CCC3)cc2)cn1
[A] 26

[Q] // next record Nc1ncc(-c2ccc(C3(c4noc(-c5cscn5)n4)CCC3)cc2)cn1
[A] 2.4

[Q] For CN(C(=O)Cn1cc(-c2nc(C3(c4ccc(-c5cnc(N)nc5)cc4)CCC3)no2)cn1)C1CC1 then?
[A] 0.9

[Q] // repeat for Nc1ncc(-c2ccc(C3(c4noc(-c5cccnc5)n4)CCC3)cc2)cn1 and report
[A] 2.2

[Q] And CC(C)(CO)Nc1cnc(-c2nc(C3(c4ccc(-c5cnc(N)nc5)cc4)CCC3)no2)cn1 ?
[A] 4.9

[Q] Please give the result for Nc1cnc(-c2nc(C3(c4ccc(-c5cnc(N)nc5)cc4)CCC3)no2)cn1 too.
[A] 1.6

[Q] Item: N#Cc1ccc(-c2nc(C3(c4ccc(-c5cnc(N)nc5)cc4)CCC3)no2)cc1
[A] 8.4

[Q] Also Nc1ncc(-c2ccc(C3(c4noc(-c5csc(N6CCNCC6)n5)n4)CCC3)cc2)cn1 ?
[A] 6.5

[Q] Can you handle Cc1ccc(-c2nc(C3(c4ccc(-c5cnc(N)nc5)cc4)CCCCC3)no2)cn1 next?
[A] 1.7

[Q] Next compound: Nc1ncc(-c2ccc(C3(c4noc(-c5cccnc5N)n4)CCC3)cc2)cn1
[A] 4.6

[Q] Similarly, Nc1ncc(-c2ccc(C3(c4noc(N5CC[C@@H](O)C5)n4)CCC3)cc2)cn1 ?
[A] 35

[Q] Then what about the compound Nc1ncc(-c2ccc(C3(c4noc(-c5ccc(S(N)(=O)=O)cc5)n4)CCC3)cc2)cn1 ?
[A] 2.4

[Q] Another: COCCn1cnc(-c2nc(C3(c4ccc(-c5cnc(N)nc5)cc4)CCC3)no2)c1
[A] 6.3

[Q] And what about the compound Nc1ncc(-c2ccc(C3(c4noc(-c5cccnc5N5CCOCC5)n4)CCC3)cc2)cn1 ?
[A] 12

[Q] Try this compound too: Nc1ncc(-c2ccc(C3(c4noc(-c5ccc(Cl)nc5)n4)CCC3)cc2)cn1
[A] 3.3

[Q] Repeat with Nc1ncc(-c2ccc(C3(c4noc(-c5c[nH]cn5)n4)CCC3)cc2)cn1
[A] 2.5

[Q] // repeat for Nc1ncc(-c2ccc(C3(c4noc(-c5c[nH]c(=O)[nH]5)n4)CCC3)cc2)cn1 and report
[A] 7

[Q] Query COCCNc1cnc(-c2nc(C3(c4ccc(-c5cnc(N)nc5)cc4)CCC3)no2)cn1 next
[A] 1.3

[Q] Input Nc1ncc(-c2ccc(C3(c4noc(-c5cccnc5Cl)n4)CCC3)cc2)cn1
[A] 2.1

[Q] What would you report for CC(=O)NCCn1cc(-c2nc(C3(c4ccc(-c5cnc(N)nc5)cc4)CCC3)no2)cn1 ?
[A] 6

[Q] Now try Nc1ncc(-c2ccc(C3(c4noc(-c5ccc(C(=O)N6CCC(F)(F)C6)nc5)n4)CCC3)cc2)cn1 .
[A] 3.5

[Q] // repeat for CCOC(=O)CNc1cnc(-c2nc(C3(c4ccc(-c5cnc(N)nc5)cc4)CCC3)no2)cn1 and report
[A] 1

[Q] Now the compound CN1CCC(N(C)c2nc(C3(c4ccc(-c5cnc(N)nc5)cc4)CCC3)no2)CC1
[A] 150

[Q] CC(C(=O)N(C)C)n1cc(-c2nc(C3(c4ccc(-c5cnc(N)nc5)cc4)CCC3)no2)cn1 (centres unmarked) ?
[A] 4.3

[Q] For N#Cc1cccc(-c2nc(C3(c4ccc(-c5cnc(N)nc5)cc4)CCC3)no2)c1 then?
[A] 8.1
